method-description: Solubility in selected solvents
Assay type: physicochemical
recorded-conditions: isopropanol, organic solvent or mixture, thermodynamic from solid
readout: solubility

>>> df
                                   compound     readout      result
0  CC(=O)O.CN(CCCNCc1ccc2c(c1)OCO2)c1nc(-n2ccnc2)ns1 [Compound 2 acetate]  solubility  3700 µg/mL

###

method-description: Solubility in selected solvents
Type: physicochemical
recorded-conditions: water, thermodynamic from solid
readout: solubility

In [3]: df
Out[3]:
                                   molecule     readout      result
0  CC(=O)O.CN(CCCNCc1ccc2c(c1)OCO2)c1nc(-n2ccnc2)ns1 [Compound 2 acetate]  solubility  44.6 mg/mL
